Biological target: K38A Mutant of aprataxin FHA domain (Homo sapiens, UniProt Q7Z2E3, K52A)
Construct: aprataxin residues 1–105; GST (pGEX-6P-1) (N, cleaved yes)
Sequence (Q7Z2E3 15-119 K52A): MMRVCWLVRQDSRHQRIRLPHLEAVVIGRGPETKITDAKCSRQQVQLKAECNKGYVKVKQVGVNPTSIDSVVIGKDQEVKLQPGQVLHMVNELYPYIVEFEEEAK
Assay: ITC of K38A mutant of aprataxin FHA domain with XRCC1 and XRCC4 phosphopeptides
Conditions: 22 °C, 50 mM HEPES pH 7.5, 150 mM NaCl, 5 mM β-mercaptoethanol, single-site model
Square brackets hold non-standard residues; d marks the D form. Peptide text beside a SMILES is read from it. pT = C[C@@H](OP(=O)(O)O)[C@H](N)C(=O)O; pS = N[C@@H](COP(=O)(O)O)C(=O)O
assayReadout: Kd (µM)
Please state the figure in µM; there is no need to write the unit.

Suppose we examine the compound C[C@@H](OP(=O)(O)O)[C@H](NC(=O)[C@H](CO)NC(=O)[C@H](CCC(=O)O)NC(=O)[C@H](CC(=O)O)NC(=O)[C@@H](N)Cc1ccc(O)cc1)C(=O)N[C@@H](CC(=O)O)C(=O)N[C@@H](CCC(=O)O)C(=O)N[C@@H](CCC(=O)O)C(=O)N[C@@H](CO)C(N)=O [YDESpTDEES] (HELM PEPTIDE1{Y.D.E.S.[C[C@@H](OP(=O)(O)O)[C@H](N[*:1])C(=O)[*:2]].D.E.E.S.[am]}$$$$V2.0) ; what Kd value has been reported?
6.8

Suppose we examine the compound C[C@@H](OP(=O)(O)O)[C@H](NC(=O)[C@H](COP(=O)(O)O)NC(=O)[C@H](CCC(=O)O)NC(=O)[C@H](CC(=O)O)NC(=O)[C@@H](N)Cc1ccc(O)cc1)C(=O)N[C@@H](CC(=O)O)C(=O)N[C@@H](CCC(=O)O)C(=O)N[C@@H](CCC(=O)O)C(=O)N[C@@H](COP(=O)(O)O)C(N)=O [YDEpSpTDEEpS] (H-YDE[pS][pT]DEE[pS]-NH2) ; what Kd value has been reported?
1.3

Suppose we examine the compound C[C@H](NC(=O)[C@@H](N)Cc1ccc(O)cc1)C(=O)NCC(=O)N[C@@H](COP(=O)(O)O)C(=O)N[C@H](C(=O)N[C@@H](CC(=O)O)C(=O)N[C@@H](CCC(=O)O)C(=O)N[C@@H](CC(N)=O)C(=O)N[C@H](C(=O)N[C@@H](CC(=O)O)C(=O)N[C@@H](CO)C(=O)N[C@@H](CCC(=O)O)C(=O)N[C@@H](CCC(=O)O)C(=O)N[C@@H](Cc1c[nH]cn1)C(=O)N[C@@H](CCC(N)=O)C(N)=O)[C@@H](C)OP(=O)(O)O)[C@@H](C)OP(=O)(O)O [YAGpSpTDENpTDSEEHQ] (H-YAG[pS][pT]DEN[pT]DSEEHQ-NH2) ; what Kd value has been reported?
4.4

Suppose we examine the compound C[C@@H](OP(=O)(O)O)[C@H](NC(=O)[C@H](COP(=O)(O)O)NC(=O)[C@H](CCC(=O)O)NC(=O)[C@H](CC(=O)O)NC(=O)[C@@H](N)Cc1ccc(O)cc1)C(=O)N[C@@H](CC(=O)O)C(=O)N[C@@H](CCC(=O)O)C(=O)N[C@@H](CCC(=O)O)C(=O)N[C@@H](CO)C(N)=O [YDEpSpTDEES] (HELM PEPTIDE1{Y.D.E.[O=C([C@H](COP(=O)(O)O)N[*:1])[*:2]].[C[C@@H](OP(=O)(O)O)[C@H](N[*:1])C(=O)[*:2]].D.E.E.S.[am]}$$$$V2.0) ; what Kd value has been reported?
1.9

====

Molecular target: R42A Mutant of aprataxin FHA domain (Homo sapiens, UniProt Q7Z2E3, R56A)
Construct: aprataxin residues 1–105; GST (pGEX-6P-1) (N, cleaved yes)
Sequence (Q7Z2E3 15-119 R56A): as the sequence (Q7Z2E3 15-119 K52A) above, with A38K, R42A counted along it
Test: ITC of R42A mutant of aprataxin FHA domain with XRCC1 and XRCC4 phosphopeptides
Settings: 22 °C, 50 mM HEPES pH 7.5, 150 mM NaCl, 5 mM β-mercaptoethanol, single-site model
pKd: −log10 of the molar value. Square brackets hold non-standard residues; d marks the D form. Peptide text beside a SMILES is read from it. pT = C[C@@H](OP(=O)(O)O)[C@H](N)C(=O)O; pS = N[C@@H](COP(=O)(O)O)C(=O)O
Please provide measured pKd for the entries that follow.

Suppose we examine the compound C[C@@H](OP(=O)(O)O)[C@H](NC(=O)[C@H](CO)NC(=O)[C@H](CCC(=O)O)NC(=O)[C@H](CC(=O)O)NC(=O)[C@@H](N)Cc1ccc(O)cc1)C(=O)N[C@@H](CC(=O)O)C(=O)N[C@@H](CCC(=O)O)C(=O)N[C@@H](CCC(=O)O)C(=O)N[C@@H](CO)C(N)=O [YDESpTDEES] (HELM PEPTIDE1{Y.D.E.S.[C[C@@H](OP(=O)(O)O)[C@H](N[*:1])C(=O)[*:2]].D.E.E.S.[am]}$$$$V2.0) ; what pKd value has been reported?
≤ 4.00

Suppose we examine the compound C[C@H](NC(=O)[C@@H](N)Cc1ccc(O)cc1)C(=O)NCC(=O)N[C@@H](COP(=O)(O)O)C(=O)N[C@H](C(=O)N[C@@H](CC(=O)O)C(=O)N[C@@H](CCC(=O)O)C(=O)N[C@@H](CC(N)=O)C(=O)N[C@H](C(=O)N[C@@H](CC(=O)O)C(=O)N[C@@H](CO)C(=O)N[C@@H](CCC(=O)O)C(=O)N[C@@H](CCC(=O)O)C(=O)N[C@@H](Cc1c[nH]cn1)C(=O)N[C@@H](CCC(N)=O)C(N)=O)[C@@H](C)OP(=O)(O)O)[C@@H](C)OP(=O)(O)O [YAGpSpTDENpTDSEEHQ] (H-YAG[pS][pT]DEN[pT]DSEEHQ-NH2) ; what pKd value has been reported?
4.54

Suppose we examine the compound C[C@@H](OP(=O)(O)O)[C@H](NC(=O)[C@H](COP(=O)(O)O)NC(=O)[C@H](CCC(=O)O)NC(=O)[C@H](CC(=O)O)NC(=O)[C@@H](N)Cc1ccc(O)cc1)C(=O)N[C@@H](CC(=O)O)C(=O)N[C@@H](CCC(=O)O)C(=O)N[C@@H](CCC(=O)O)C(=O)N[C@@H](CO)C(N)=O [YDEpSpTDEES] (HELM PEPTIDE1{Y.D.E.[O=C([C@H](COP(=O)(O)O)N[*:1])[*:2]].[C[C@@H](OP(=O)(O)O)[C@H](N[*:1])C(=O)[*:2]].D.E.E.S.[am]}$$$$V2.0) ; what pKd value has been reported?
≤ 4.00

Suppose we examine the compound C[C@@H](OP(=O)(O)O)[C@H](NC(=O)[C@H](COP(=O)(O)O)NC(=O)[C@H](CCC(=O)O)NC(=O)[C@H](CC(=O)O)NC(=O)[C@@H](N)Cc1ccc(O)cc1)C(=O)N[C@@H](CC(=O)O)C(=O)N[C@@H](CCC(=O)O)C(=O)N[C@@H](CCC(=O)O)C(=O)N[C@@H](COP(=O)(O)O)C(N)=O [YDEpSpTDEEpS] (H-YDE[pS][pT]DEE[pS]-NH2) ; what pKd value has been reported?
≤ 4.00

====

Biological target: wild-type aprataxin FHA domain (Homo sapiens, UniProt Q7Z2E3)
Construct: aprataxin residues 1–105; GST (pGEX-6P-1) (N, cleaved yes)
Sequence (Q7Z2E3 15-119): as the sequence (Q7Z2E3 15-119 K52A) above, with A38K counted along it
Test: ITC of wild-type aprataxin FHA domain with XRCC1 and XRCC4 phosphopeptides
Conditions: 22 °C, 50 mM HEPES pH 7.5, 150 mM NaCl, 5 mM β-mercaptoethanol, peptide in syringe, XRCC1 peptides 1 mM into 100 μM protein, XRCC4 peptides 300 μM into 30 μM protein, single-site model, representative of triplicate
Square brackets hold non-standard residues; d marks the D form. Peptide text beside a SMILES is read from it. pT = C[C@@H](OP(=O)(O)O)[C@H](N)C(=O)O; pS = N[C@@H](COP(=O)(O)O)C(=O)O
Please provide measured Kd for the entries that follow.
Please state the figure in nM; there is no need to write the unit.

Suppose we examine the compound C[C@H](NC(=O)[C@@H](N)Cc1ccc(O)cc1)C(=O)NCC(=O)N[C@@H](COP(=O)(O)O)C(=O)N[C@H](C(=O)N[C@@H](CC(=O)O)C(=O)N[C@@H](CCC(=O)O)C(=O)N[C@@H](CC(N)=O)C(=O)N[C@H](C(=O)N[C@@H](CC(=O)O)C(=O)N[C@@H](COP(=O)(O)O)C(=O)N[C@@H](CCC(=O)O)C(=O)N[C@@H](CCC(=O)O)C(=O)N[C@@H](Cc1c[nH]cn1)C(=O)N[C@@H](CCC(N)=O)C(N)=O)[C@@H](C)OP(=O)(O)O)[C@@H](C)OP(=O)(O)O [YAGpSpTDENpTDpSEEHQ] (H-YAG[pS][pT]DEN[pT]D[pS]EEHQ-NH2) ; what Kd value has been reported?
870

Suppose we examine the compound C[C@H](NC(=O)[C@@H](N)Cc1ccc(O)cc1)C(=O)NCC(=O)N[C@@H](COP(=O)(O)O)C(=O)N[C@H](C(=O)N[C@@H](CC(=O)O)C(=O)N[C@@H](CCC(=O)O)C(=O)N[C@@H](CC(N)=O)C(=O)N[C@H](C(=O)N[C@@H](CC(=O)O)C(=O)N[C@@H](CO)C(=O)N[C@@H](CCC(=O)O)C(=O)N[C@@H](CCC(=O)O)C(=O)N[C@@H](Cc1c[nH]cn1)C(=O)N[C@@H](CCC(N)=O)C(N)=O)[C@@H](C)OP(=O)(O)O)[C@@H](C)OP(=O)(O)O [YAGpSpTDENpTDSEEHQ] (H-YAG[pS][pT]DEN[pT]DSEEHQ-NH2) ; what Kd value has been reported?
500

Suppose we examine the compound C[C@@H](OP(=O)(O)O)[C@H](NC(=O)[C@H](CO)NC(=O)[C@H](CCC(=O)O)NC(=O)[C@H](CC(=O)O)NC(=O)[C@@H](N)Cc1ccc(O)cc1)C(=O)N[C@@H](CC(=O)O)C(=O)N[C@@H](CCC(=O)O)C(=O)N[C@@H](CCC(=O)O)C(=O)N[C@@H](CO)C(N)=O [YDESpTDEES] (HELM PEPTIDE1{Y.D.E.S.[C[C@@H](OP(=O)(O)O)[C@H](N[*:1])C(=O)[*:2]].D.E.E.S.[am]}$$$$V2.0) ; what Kd value has been reported?
2100

Suppose we examine the compound C[C@@H](OP(=O)(O)O)[C@H](NC(=O)[C@H](COP(=O)(O)O)NC(=O)[C@H](CCC(=O)O)NC(=O)[C@H](CC(=O)O)NC(=O)[C@@H](N)Cc1ccc(O)cc1)C(=O)N[C@@H](CC(=O)O)C(=O)N[C@@H](CCC(=O)O)C(=O)N[C@@H](CCC(=O)O)C(=O)N[C@@H](COP(=O)(O)O)C(N)=O [YDEpSpTDEEpS] (H-YDE[pS][pT]DEE[pS]-NH2) ; what Kd value has been reported?
140

Suppose we examine the compound C[C@@H](OP(=O)(O)O)[C@H](NC(=O)[C@H](COP(=O)(O)O)NC(=O)[C@H](CCC(=O)O)NC(=O)[C@H](CC(=O)O)NC(=O)[C@@H](N)Cc1ccc(O)cc1)C(=O)N[C@@H](CC(=O)O)C(=O)N[C@@H](CCC(=O)O)C(=O)N[C@@H](CCC(=O)O)C(=O)N[C@@H](CO)C(N)=O [YDEpSpTDEES] (HELM PEPTIDE1{Y.D.E.[O=C([C@H](COP(=O)(O)O)N[*:1])[*:2]].[C[C@@H](OP(=O)(O)O)[C@H](N[*:1])C(=O)[*:2]].D.E.E.S.[am]}$$$$V2.0) ; what Kd value has been reported?
250

All values here come from paper PMC4655838.
